Target: human TASK-3 (Homo sapiens (Human), UniProt Q9NPC2)
Sequence (Q9NPC2 whole entry): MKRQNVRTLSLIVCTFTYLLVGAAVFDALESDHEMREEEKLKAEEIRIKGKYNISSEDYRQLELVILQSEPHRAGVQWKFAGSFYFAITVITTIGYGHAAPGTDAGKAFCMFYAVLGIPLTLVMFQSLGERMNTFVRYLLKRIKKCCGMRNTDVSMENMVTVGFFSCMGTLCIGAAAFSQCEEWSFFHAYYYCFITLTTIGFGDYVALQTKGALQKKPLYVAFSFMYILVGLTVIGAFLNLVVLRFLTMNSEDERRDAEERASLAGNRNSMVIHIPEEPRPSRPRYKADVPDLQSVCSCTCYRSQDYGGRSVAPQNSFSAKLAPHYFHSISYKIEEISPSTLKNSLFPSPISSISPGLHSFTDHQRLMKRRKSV
Assay: Inhibition of recombinant TASK-3 in stably transfected CHO cells (voltage-sensitive dye, KCl depolarization)
Format: cell-based
Conditions: depolarization by 40 mM potassium chloride
Method: B-2. Inhibition of Recombinant TASK-1 and TASK-3 In Vitro The investigations on the inhibition of the recombinant TASK-1 and TASK-3 channels were conducted using stably transfected CHO cells. […] 6 (5), 305-312 (2001); Molecular Devices FLIPR Application Note: Measuring membrane potential using the FLIPR® membrane potential assay kit on Fluorometric Imaging Plate Reader (FLIPR®) systems, http://www.moleculardevices.com/reagents-supplies/assay-kits/ion-channels/flipr-membrane-potential-assay-kits]. […]
result type: IC50 (nM)
Numeric only. Scale: nM

Ask: # value lookup — system human TASK-3 (Homo sapiens (Human), UniProt Q9NPC2), readout IC50, item COc1cccc(C(=O)N2C3CCC2CN(Cc2c(-c4ccc(Cl)cc4)nc4ncccn24)C3)c1 [Example 36]
Reply: 80

Ask: # value lookup — system human TASK-3 (Homo sapiens (Human), UniProt Q9NPC2), readout IC50, item O=C(c1coc(C2CC2)n1)N1C2CCC1CN(Cc1c(-c3ccc(Cl)cc3)nc3ncccn13)C2 [Example 47]
Reply: 110

Ask: # value lookup — system human TASK-3 (Homo sapiens (Human), UniProt Q9NPC2), readout IC50, item O=C(Nc1ccc(Cl)cc1C(F)(F)F)N1C2CCC1CN(Cc1c(-c3ccc(Cl)cc3)nc3ncccn13)C2 [Example 106]
Reply: 89

Ask: # value lookup — system human TASK-3 (Homo sapiens (Human), UniProt Q9NPC2), readout IC50, item COc1cccc(C(=O)N2CC3CCC2CN3Cc2c(-c3ccc(C(C)C)cc3)nc3ncccn23)n1 (stereo not shown) [Example 74]
Reply: 61

* * *

I'd be grateful if you could share measured IC50 for these entries.
Target: human TASK-1 (Homo sapiens (Human), UniProt O14649)
Sequence (O14649 whole entry): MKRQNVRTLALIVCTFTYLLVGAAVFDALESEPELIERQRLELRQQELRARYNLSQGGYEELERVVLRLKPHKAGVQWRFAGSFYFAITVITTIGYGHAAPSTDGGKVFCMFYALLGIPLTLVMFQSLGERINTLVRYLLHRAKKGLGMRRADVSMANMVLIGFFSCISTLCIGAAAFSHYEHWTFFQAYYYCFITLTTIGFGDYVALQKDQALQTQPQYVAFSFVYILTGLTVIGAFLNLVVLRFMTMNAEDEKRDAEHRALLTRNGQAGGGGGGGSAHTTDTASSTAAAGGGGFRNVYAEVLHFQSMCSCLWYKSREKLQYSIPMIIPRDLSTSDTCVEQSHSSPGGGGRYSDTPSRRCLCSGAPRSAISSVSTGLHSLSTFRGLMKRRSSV
Test: Inhibition of recombinant TASK-1 in stably transfected CHO cells (voltage-sensitive dye, KCl depolarization)
Type: cell-based
Details: depolarization by 40 mM potassium chloride
Numeric only. Scale: µM

Ask: // IC50 lookup, key: COc1cccc(C(=O)N2CC3CCC2CN3Cc2c(-c3ccc(C(C)C)cc3)nc3ncccn23)n1 (centres unmarked) [Example 73]
Reply: 9.1

Ask: // IC50 lookup, key: COc1cccc(C(=O)N2C3COCC2CN(Cc2c(-c4ccc(Cl)cc4)nc4ncccn24)C3)n1
Reply: 1.5

Ask: // IC50 lookup, key: O=C(Nc1ccc(Cl)cc1C(F)(F)F)N1C2CCC1CN(Cc1c(-c3ccc(Cl)cc3)nc3ncccn13)C2
Reply: 30

Ask: // IC50 lookup, key: COc1cccc(CN(C)C(=O)N2C3CCC2CN(Cc2c(-c4ccc(Cl)cc4)nc4ncccn24)C3)c1
Reply: 12

Ask: // IC50 lookup, key: COc1cccc(C(=O)N2CC3CCC2CN3Cc2c(-c3ccc(Cl)cc3)nc3ncccn23)n1 (centres unmarked) [Example 44]
Reply: 1

Ask: // IC50 lookup, key: CC(C)N(C(=O)N1C2CCC1CN(Cc1c(-c3ccc(Cl)cc3)nc3ncccn13)C2)C(C)C
Reply: 6.3

Ask: // IC50 lookup, key: Cc1nc(C(=O)N2C3CCC2CN(Cc2c(-c4ccc(Cl)cc4)nc4ncccn24)C3)c(C)o1
Reply: 5.6

Ask: // IC50 lookup, key: CC(C)(C)OC(=O)N1C2COCC1CN(Cc1c(-c3ccc(Cl)cc3)nc3ncccn13)C2
Reply: 1.7
